Reference source for all entries: the supplement of paper PMC11061612

System: JHH-6 (Hepatocellular Carcinoma)
Test: Bliss excess, mean over the matrix (fraction); higher = more synergy
Measured Bliss excess of individual entries

[
  {
    "COMPOUND": "COc1cccc(OCCCN)c1-c1cc(Nc2cnc(C#N)cn2)n[nH]1 [Prexasertib] + CCc1c2c(nc3ccc(O)cc13)-c1cc3c(c(=O)n1C2)COC(=O)[C@]3(O)CC [SN-38] (first compound max 1 µM, 7x7, partner max 0.3 µM)",
    "Bliss excess": 0.0337
  },
  {
    "COMPOUND": "Cc1cc2ncnn2cc1Nc1ncc2c(n1)n(C1CCOCC1)c(=O)n2C [AZD7648] + CN(C)CCCOc1ccc(-c2ccc3ncc4c(c3c2)n(C2CCOCC2)c(=O)n4C)cn1 [AZD0156] (first compound max 10 µM, 7x7, partner max 1 µM)",
    "Bliss excess": -0.0033
  },
  {
    "COMPOUND": "Cn1cnc2c(F)c(Nc3ccc(Br)cc3Cl)c(C(=O)NOCCO)cc21 [Selumetinib] + C=CCn1c(=O)c2cnc(Nc3ccc(N4CCN(C)CC4)cc3)nc2n1-c1cccc(C(C)(C)O)n1 [AZD1775] (first compound max 10 µM, partner max 1 µM)",
    "Bliss excess": -0.0963
  },
  {
    "COMPOUND": "C=CCn1c(=O)c2cnc(Nc3ccc(N4CCN(C)CC4)cc3)nc2n1-c1cccc(C(C)(C)O)n1 [AZD1775] + C[C@@H]1COCCN1C2=NC(=NC(=C2)C3(CC3)[S@](=N)(=O)C)C4=C5C=CNC5=NC=C4 [AZD6738] (first compound max 1 µM, partner max 10 µM)",
    "Bliss excess": -0.0073
  }
]

====

System: Saos-2 (Osteosarcoma)
Assay: Bliss excess, mean over the matrix (fraction); higher = more synergy
EXPERIMENTAL_READOUT: Bliss excess

[
  {
    "MOLECULE": "Cc1c2c(nn1C)CSCc1cc(n(C)n1)CSc1cc(c3ccccc3c1)OCCCc1c(C(=O)O)n(C)c3c-2c(Cl)ccc13 [AZD5991] + Cn1cnc2c(F)c(Nc3ccc(Br)cc3Cl)c(C(=O)NOCCO)cc21 [Selumetinib] (first compound max 1 µM, 7x7, partner max 3 µM)",
    "NUMBER": -0.007
  },
  {
    "MOLECULE": "C=CCn1c(=O)c2cnc(Nc3ccc(N4CCN(C)CC4)cc3)nc2n1-c1cccc(C(C)(C)O)n1 [AZD1775] + C1CN(CCC1(C(=O)N[C@@H](CCO)C2=CC=C(C=C2)Cl)N)C3=NC=NC4=C3C=CN4 [Capivasertib] (first compound max 3 µM, partner max 3 µM)",
    "NUMBER": -0.0459
  },
  {
    "MOLECULE": "O=C(c1cc(Cc2n[nH]c(=O)c3ccccc23)ccc1F)N1CCN(C(=O)C2CC2)CC1 [Olaparib] + Cc1c2c(nn1C)CSCc1cc(n(C)n1)CSc1cc(c3ccccc3c1)OCCCc1c(C(=O)O)n(C)c3c-2c(Cl)ccc13 [AZD5991] (first compound max 10 µM, 7x7, partner max 1 µM)",
    "NUMBER": -0.0087
  },
  {
    "MOLECULE": "COc1cccc(OCCCN)c1-c1cc(Nc2cnc(C#N)cn2)n[nH]1 [Prexasertib] + Cc1cc2ncnn2cc1Nc1ncc2c(n1)n(C1CCOCC1)c(=O)n2C [AZD7648] (first compound max 1 µM, 7x7, partner max 10 µM)",
    "NUMBER": -0.0591
  }
]

====

Tested on: DOK (Oral Cavity Carcinoma)
Assay: combination Emax (second highest fraction inhibited in the dose matrix, 72 h); higher = more inhibition; extreme values may be limits of the assay
Measured combination Emax of individual entries
EXPERIMENTAL_READOUT: combination Emax

[
  {
    "MOLECULE": "C[C@@H](Nc1cc(F)cc(F)c1)c1cc(C(=O)N(C)C)cc2c(=O)cc(N3CCOCC3)oc12 [AZD8186] + C1CN(CCC1(C(=O)N[C@@H](CCO)C2=CC=C(C=C2)Cl)N)C3=NC=NC4=C3C=CN4 [AZD5363] (first compound max 10 µM, 7x7, partner max 10 µM)",
    "RESULT": 0.655
  },
  {
    "MOLECULE": "O=C(c1cc(Cc2n[nH]c(=O)c3ccccc23)ccc1F)N1CCN(C(=O)C2CC2)CC1 [Olaparib] + COc1nnc2ccc(N3CCC(c4ccc(OCCN5CCN(C)C(=O)[C@H]5C)cc4)CC3)nn12 [AZD5153] (first compound max 10 µM, 7x7, partner max 1 µM)",
    "RESULT": 0.445
  },
  {
    "MOLECULE": "NC1(C(=O)N[C@@H](CCO)c2ccc(Cl)cc2)CCN(c2ncnc3[nH]ccc23)CC1 [Capivasertib] + C[C@@H]1COCCN1C2=NC(=NC(=C2)C3(CC3)[S@](=N)(=O)C)C4=C5C=CNC5=NC=C4 [AZD6738] (first compound max 10 µM, 7x7, partner max 10 µM)",
    "RESULT": 0.601
  },
  {
    "MOLECULE": "CC1(C)CCC(CN2CCN(c3ccc(C(=O)NS(=O)(=O)c4ccc(NCC5CCOCC5)c([N+](=O)[O-])c4)c(Oc4cnc5[nH]ccc5c4)c3)CC2)=C(c2ccc(Cl)cc2)C1 [Venetoclax] + COc1cc(Nc2ncc3c(n2)-c2ccc(Cl)cc2C(c2c(F)cccc2OC)=NC3)ccc1C(=O)O [Alisertib] (first compound max 1 µM, 7x7, partner max 10 µM)",
    "RESULT": 0.646
  },
  {
    "MOLECULE": "Cc1c2c(nn1C)CSCc1cc(n(C)n1)CSc1cc(c3ccccc3c1)OCCCc1c(C(=O)O)n(C)c3c-2c(Cl)ccc13 [AZD5991] + C[C@@H](Nc1cc(F)cc(F)c1)c1cc(C(=O)N(C)C)cc2c(=O)cc(N3CCOCC3)oc12 [AZD8186] (first compound max 1 µM, 7x7, partner max 3 µM)",
    "RESULT": 0.459
  },
  {
    "MOLECULE": "NC1(C(=O)N[C@@H](CCO)c2ccc(Cl)cc2)CCN(c2ncnc3[nH]ccc23)CC1 [Capivasertib] + CC(=O)c1c(C)c2cnc(Nc3ccc(N4CCNCC4)cn3)nc2n(C2CCCC2)c1=O [Palbociclib] (first compound max 10 µM, 7x7, partner max 10 µM)",
    "RESULT": 0.596
  },
  {
    "MOLECULE": "CC1(C)CCC(CN2CCN(c3ccc(C(=O)NS(=O)(=O)c4ccc(NCC5CCOCC5)c([N+](=O)[O-])c4)c(Oc4cnc5[nH]ccc5c4)c3)CC2)=C(c2ccc(Cl)cc2)C1 [Venetoclax] + C=CCn1c(=O)c2cnc(Nc3ccc(N4CCN(C)CC4)cc3)nc2n1-c1cccc(C(C)(C)O)n1 [AZD1775] (first compound max 1 µM, partner max 1 µM)",
    "RESULT": 0.333
  },
  {
    "MOLECULE": "CC1(C)CCC(CN2CCN(c3ccc(C(=O)NS(=O)(=O)c4ccc(NCC5CCOCC5)c([N+](=O)[O-])c4)c(Oc4cnc5[nH]ccc5c4)c3)CC2)=C(c2ccc(Cl)cc2)C1 [Venetoclax] + Cc1cc2ncnn2cc1Nc1ncc2c(n1)n(C1CCOCC1)c(=O)n2C [AZD7648] (first compound max 1 µM, 7x7, partner max 10 µM)",
    "RESULT": 0.247
  },
  {
    "MOLECULE": "Cn1cnc2c(F)c(Nc3ccc(Br)cc3Cl)c(C(=O)NOCCO)cc21 [Selumetinib] + CCN(CCO)CCCOc1ccc2c(Nc3cc(CC(=O)Nc4cccc(F)c4)[nH]n3)ncnc2c1 [AZD2811] (first compound max 10 µM, 7x7, partner max 1 µM)",
    "RESULT": 0.633
  },
  {
    "MOLECULE": "COc1cccc2c1C(=O)c1c(O)c3c(c(O)c1C2=O)C[C@@](O)(C(=O)CO)C[C@@H]3O[C@H]1C[C@H](N)[C@H](O)[C@H](C)O1 [Doxorubicin] + Cc1cc2ncnn2cc1Nc1ncc2c(n1)n(C1CCOCC1)c(=O)n2C [AZD7648] (first compound max 1 µM, 7x7, partner max 10 µM)",
    "RESULT": 0.697
  },
  {
    "MOLECULE": "NC1(C(=O)N[C@@H](CCO)c2ccc(Cl)cc2)CCN(c2ncnc3[nH]ccc23)CC1 [Capivasertib] + CCN(CCO)CCCOc1ccc2c(Nc3cc(CC(=O)Nc4cccc(F)c4)[nH]n3)ncnc2c1 [AZD2811] (first compound max 10 µM, 7x7, partner max 1 µM)",
    "RESULT": 0.592
  },
  {
    "MOLECULE": "COc1nnc2ccc(N3CCC(c4ccc(OCCN5CCN(C)C(=O)[C@H]5C)cc4)CC3)nn12 [AZD5153] + CC1(C)CCC(CN2CCN(c3ccc(C(=O)NS(=O)(=O)c4ccc(NCC5CCOCC5)c([N+](=O)[O-])c4)c(Oc4cnc5[nH]ccc5c4)c3)CC2)=C(c2ccc(Cl)cc2)C1 [Venetoclax] (first compound max 1 µM, 7x7, partner max 1 µM)",
    "RESULT": 0.431
  },
  {
    "MOLECULE": "Cc1c2c(nn1C)CSCc1cc(n(C)n1)CSc1cc(c3ccccc3c1)OCCCc1c(C(=O)O)n(C)c3c-2c(Cl)ccc13 [AZD5991] + Cn1cnc2c(F)c(Nc3ccc(Br)cc3Cl)c(C(=O)NOCCO)cc21 [Selumetinib] (first compound max 1 µM, 7x7, partner max 3 µM)",
    "RESULT": 0.903
  }
]
